Data origin, for the record: ChEMBL document CHEMBL1153245

test system: M14; experiment: Anticancer activity against human M14 cells assessed cell growth at 10 uM after 48 hrs by sulforhodamine B assay relative to control; format: functional
Listed molecules paired with reported Activity
measuredQuantity: Activity (%)

INSERT INTO measurements (givensmiles, readoutunits, readoutnumber) VALUES
  ('CCCCCCCCCCCC[n+]1ccn(C)c1.F[B-](F)(F)F', '%', 24.71),
  ('CCCCCCCCCCCC[n+]1ccn(C)c1.[Cl-]', '%', 8.94),
  ('CCCCCCCC[n+]1ccn(C)c1.F[P-](F)(F)(F)(F)F', '%', 81.87),
  ('Cn1cc[n+](Cc2ccccc2)c1.F[P-](F)(F)(F)(F)F', '%', 114.25),
  ('CCCCCCCC[n+]1ccn(C)c1.[Cl-]', '%', 87.47),
  ('Cn1cc[n+](CCO)c1.O=S(=O)([N-]S(=O)(=O)C(F)(F)F)C(F)(F)F', '%', 102.65),
  ('CCCCCCCCOS(=O)(=O)[O-].CCCCCCCC[n+]1ccn(C)c1', '%', 84),
  ('CCCCCCCCCCCCCCCC[n+]1ccn(C)c1.[Cl-]', '%', -73.7),
  ('CCCCCCCC[n+]1ccn(C)c1.F[B-](F)(F)F', '%', 87.56),
  ('CCCCCCCCCCCCCCCCCC[n+]1ccn(C)c1.F[P-](F)(F)(F)(F)F', '%', -28.52),
  ('CCCCCCCCCCCCCCCCCC[n+]1ccn(C)c1.[Cl-]', '%', -33.7);

* * *

tested on: DU-145; experiment: Anticancer activity against human DU145 cells assessed cell growth at 10 uM after 48 hrs by sulforhodamine B assay relative to control; assay type: functional
measuredQuantity: Activity (%)

INSERT INTO assay_data (givensmiles, studytarget, readoutnumber) VALUES
  ('Cn1cc[n+](CCO)c1.O=S(=O)([N-]S(=O)(=O)C(F)(F)F)C(F)(F)F', 'DU-145', 114.39),
  ('COCC[n+]1ccn(C)c1.O=S(=O)([N-]S(=O)(=O)C(F)(F)F)C(F)(F)F', 'DU-145', 99.43),
  ('CCCCCCCCCCCCCCCCCC[n+]1ccn(C)c1.O=S(=O)([N-]S(=O)(=O)C(F)(F)F)C(F)(F)F', 'DU-145', -8.63),
  ('CCCCCCCCCCCCCCCC[n+]1ccn(C)c1.[Cl-]', 'DU-145', -69.69),
  ('CCCCCCCC[n+]1ccn(C)c1.F[P-](F)(F)(F)(F)F', 'DU-145', 99.58),
  ('CCCCCCCCCCCCCCCCCC[n+]1ccn(C)c1.[Cl-]', 'DU-145', -7.74),
  ('CCCCCCCCCCCCCCCCCC[n+]1ccn(C)c1.FC(F)(F)C(F)(F)[P-](F)(F)(F)(C(F)(F)C(F)(F)F)C(F)(F)C(F)(F)F', 'DU-145', 7.06),
  ('CCCCCC[n+]1ccn(C)c1.O=S(=O)([N-]S(=O)(=O)C(F)(F)F)C(F)(F)F', 'DU-145', 117.36),
  ('CCCCCCCCCCCC[n+]1ccn(C)c1.[Cl-]', 'DU-145', 6.6),
  ('CCCCCCCCCCCC[n+]1ccn(C)c1.F[B-](F)(F)F', 'DU-145', 7.97),
  ('CCCCCC[n+]1ccn(C)c1.FC(F)(F)C(F)(F)[P-](F)(F)(F)(C(F)(F)C(F)(F)F)C(F)(F)C(F)(F)F', 'DU-145', 107.66),
  ('CCCCCCCC[n+]1ccn(C)c1.[Cl-]', 'DU-145', 99.82),
  ('CCCCCCCC[n+]1ccn(C)c1.F[B-](F)(F)F', 'DU-145', 95.55),
  ('Cn1cc[n+](Cc2ccccc2)c1.F[P-](F)(F)(F)(F)F', 'DU-145', 118.22),
  ('CCCCCCCCOS(=O)(=O)[O-].CCCCCCCC[n+]1ccn(C)c1', 'DU-145', 96.94),
  ('CCCCCCCCCCCCCCCCCC[n+]1ccn(C)c1.F[P-](F)(F)(F)(F)F', 'DU-145', -12.17);

* * *

test system: A549; assay: Anticancer activity against human A549 cells assessed cell growth at 10 uM after 48 hrs by sulforhodamine B assay relative to control; assay type: functional
Output: class label from Activity. Mapping: interval 1 = under 30%, interval 2 = from 30% up to 80%, interval 3 = 80% and over

INSERT INTO measurements (givensmiles, classname) VALUES
  ('CCCCCCCC[n+]1ccn(C)c1.F[P-](F)(F)(F)(F)F', 'interval 3'),
  ('Cn1cc[n+](CCO)c1.O=S(=O)([N-]S(=O)(=O)C(F)(F)F)C(F)(F)F', 'interval 3'),
  ('CCCCCCCCCCCC[n+]1ccn(C)c1.[Cl-]', 'interval 2'),
  ('CCCCCCCC[n+]1ccn(C)c1.[Cl-]', 'interval 3'),
  ('CCCCCCCCCCCCCCCCCC[n+]1ccn(C)c1.O=S(=O)([N-]S(=O)(=O)C(F)(F)F)C(F)(F)F', 'interval 1'),
  ('CCCCCCCCCCCCCCCCCC[n+]1ccn(C)c1.[Cl-]', 'interval 1'),
  ('CCCCCCCC[n+]1ccn(C)c1.F[B-](F)(F)F', 'interval 3'),
  ('Cn1cc[n+](Cc2ccccc2)c1.F[P-](F)(F)(F)(F)F', 'interval 3'),
  ('CCCCCC[n+]1ccn(C)c1.FC(F)(F)C(F)(F)[P-](F)(F)(F)(C(F)(F)C(F)(F)F)C(F)(F)C(F)(F)F', 'interval 2'),
  ('CCCCCCCCOS(=O)(=O)[O-].CCCCCCCC[n+]1ccn(C)c1', 'interval 3'),
  ('CCCCCCCCCCCCCCCCCC[n+]1ccn(C)c1.F[P-](F)(F)(F)(F)F', 'interval 1'),
  ('COCC[n+]1ccn(C)c1.O=S(=O)([N-]S(=O)(=O)C(F)(F)F)C(F)(F)F', 'interval 3'),
  ('CCCCCCCCCCCCCCCC[n+]1ccn(C)c1.[Cl-]', 'interval 1'),
  ('CCCCCCCCCCCC[n+]1ccn(C)c1.F[B-](F)(F)F', 'interval 2'),
  ('CCCCCCCCCCCCCCCCCC[n+]1ccn(C)c1.FC(F)(F)C(F)(F)[P-](F)(F)(F)(C(F)(F)C(F)(F)F)C(F)(F)C(F)(F)F', 'interval 1');

* * *

Listed compounds paired with reported Activity
system: OVCAR-3; test: Anticancer activity against human OVCAR-3 cells assessed cell growth at 10 uM after 48 hrs by sulforhodamine B assay relative to control; type: functional
measuredQuantity: Activity (%)

INSERT INTO measurements (givensmiles, studytarget, measuredquantity, readoutnumber) VALUES
  ('Cn1cc[n+](CCO)c1.O=S(=O)([N-]S(=O)(=O)C(F)(F)F)C(F)(F)F', 'OVCAR-3', 'Activity', 120.42),
  ('CCCCCC[n+]1ccn(C)c1.O=S(=O)([N-]S(=O)(=O)C(F)(F)F)C(F)(F)F', 'OVCAR-3', 'Activity', 99.74),
  ('CCCCCC[n+]1ccn(C)c1.FC(F)(F)C(F)(F)[P-](F)(F)(F)(C(F)(F)C(F)(F)F)C(F)(F)C(F)(F)F', 'OVCAR-3', 'Activity', 94.84),
  ('CCCCCCCCCCCC[n+]1ccn(C)c1.[Cl-]', 'OVCAR-3', 'Activity', 45.92),
  ('Cn1cc[n+](Cc2ccccc2)c1.F[P-](F)(F)(F)(F)F', 'OVCAR-3', 'Activity', 110.15),
  ('CCCCCCCCCCCC[n+]1ccn(C)c1.F[B-](F)(F)F', 'OVCAR-3', 'Activity', 55.26),
  ('COCC[n+]1ccn(C)c1.O=S(=O)([N-]S(=O)(=O)C(F)(F)F)C(F)(F)F', 'OVCAR-3', 'Activity', 116.33),
  ('CCCCCCCC[n+]1ccn(C)c1.F[P-](F)(F)(F)(F)F', 'OVCAR-3', 'Activity', 86.51),
  ('CCCCCCCCCCCCCCCCCC[n+]1ccn(C)c1.FC(F)(F)C(F)(F)[P-](F)(F)(F)(C(F)(F)C(F)(F)F)C(F)(F)C(F)(F)F', 'OVCAR-3', 'Activity', -53.86);

* * *

tested on: SK-MEL-5; assay: Anticancer activity against human SK-MEL-5 cells after 48 hrs by sulforhodamine B assay; type: functional; details: Homo sapiens, SK-MEL-5, 48 h
measuredQuantity: GI50 (nM)

INSERT INTO measurements (givensmiles, measuredquantity, readoutnumber) VALUES
  ('CCCCCCCCCCCCCCCC[n+]1ccn(C)c1.[Cl-]', 'GI50', 461),
  ('CCCCCCCCCCCC[n+]1ccn(C)c1.[Cl-]', 'GI50', 1220),
  ('CCCCCCCCCCCCCCCCCC[n+]1ccn(C)c1.[Cl-]', 'GI50', 414),
  ('CCCCCCCCCCCCCCCCCC[n+]1ccn(C)c1.FC(F)(F)C(F)(F)[P-](F)(F)(F)(C(F)(F)C(F)(F)F)C(F)(F)C(F)(F)F', 'GI50', 313),
  ('CCCCCCCCCCCCCCCCCC[n+]1ccn(C)c1.O=S(=O)([N-]S(=O)(=O)C(F)(F)F)C(F)(F)F', 'GI50', 532);
